Consider the following molecules and their measured Solubility in water readings.
Assay: Solubility in water of CD's and Fru-CD's
Assay type: physicochemical
Conditions: 21° C. ± 1° C.
Experimental: The solubilities of 2 and 4 were determined as were their respective abilities to solubilize a slightly soluble drug. ^a determined at 21° C. ± 1° C.
Please give a number only; it is taken to be in mg/mL.

molecule	measurementLabel	unitDescriptor	experimentalValue
OC[C@H]1O[C@@](CO)(OC[C@H]2O[C@@H]3O[C@H]4[C@H](O)[C@@H](O)[C@@H](O[C@H]5[C@H](O)[C@@H](O)[C@@H](O[C@H]6[C@H](O)[C@@H](O)[C@@H](O[C@H]7[C@H](O)[C@@H](O)[C@@H](O[C@H]8[C@H](O)[C@@H](O)[C@@H](O[C@H]2[C@H](O)[C@H]3O)O[C@@H]8CO)O[C@@H]7CO)O[C@@H]6CO)O[C@@H]5CO)O[C@@H]4CO)[C@@H](O)[C@@H]1O	Solubility in water	mg/mL	1054
OC[C@H]1O[C@@H]2O[C@H]3[C@H](O)[C@@H](O)[C@@H](O[C@H]4[C@H](O)[C@@H](O)[C@@H](O[C@H]5[C@H](O)[C@@H](O)[C@@H](O[C@H]6[C@H](O)[C@@H](O)[C@@H](O[C@H]7[C@H](O)[C@@H](O)[C@@H](O[C@H]1[C@H](O)[C@H]2O)O[C@@H]7CO)O[C@@H]6CO)O[C@@H]5CO)O[C@@H]4CO)O[C@@H]3CO [α-CD, cyclohexaamylose, reference compound]	Solubility in water	mg/mL	126
OC[C@H]1O[C@@H]2O[C@H]3[C@H](O)[C@@H](O)[C@@H](O[C@H]4[C@H](O)[C@@H](O)[C@@H](O[C@H]5[C@H](O)[C@@H](O)[C@@H](O[C@H]6[C@H](O)[C@@H](O)[C@@H](O[C@H]7[C@H](O)[C@@H](O)[C@@H](O[C@H]8[C@H](O)[C@@H](O)[C@@H](O[C@H]1[C@H](O)[C@H]2O)O[C@@H]8CO)O[C@@H]7CO)O[C@@H]6CO)O[C@@H]5CO)O[C@@H]4CO)O[C@@H]3CO [β-CD, cycloheptaamylose, reference compound]	Solubility in water	mg/mL	20

Fill in the blank: the reported Solubility in water of OC[C@H]1O[C@@](CO)(OC[C@H]2O[C@@H]3O[C@H]4[C@H](O)[C@@H](O)[C@@H](O[C@H]5[C@H](O)[C@@H](O)[C@@H](O[C@H]6[C@H](O)[C@@H](O)[C@@H](O[C@H]7[C@H](O)[C@@H](O)[C@@H](O[C@H]8[C@H](O)[C@@H](O)[C@@H](O[C@H]9[C@H](O)[C@@H](O)[C@@H](O[C@H]2[C@H](O)[C@H]3O)O[C@@H]9CO)O[C@@H]8CO)O[C@@H]7CO)O[C@@H]6CO)O[C@@H]5CO)O[C@@H]4CO)[C@@H](O)[C@@H]1O is ____.
1136
